Target: Luciferin 4-monooxygenase (Photinus pyralis)
Test description: Primary firefly luciferase (FLuc) qHTS assay for identification of artifact compounds. (AID 1845220); note: nearly all actives have a fitted effect of over 60% in size
Experimental conditions: purified firefly luciferase, luminescence, 5 min; at 54.1 µM (top of the series) unless noted; series mostly up to 54.1 µM
Active and inactive are the calls of the source. Calls come from the whole dose curve; as a rule, active = well fitted inhibition curve with a large enough effect; inconclusive = small, poorly fitted or top-dose-only effect; inactive = flat fitted curve, though single readings scatter.

| Compound | outcome |
| --- | --- |
| C[C@H]1CCC[C@H](O)CCC/C=C/c2cc(O)cc(O)c2C(=O)O1 | inactive |
| C[C@@H]1C[C@@H](O)[C@]2(O)O[C@@H]3C[C@@]4(C=O)C(CC[C@@H]5C4CC[C@]4(C)[C@@](O)(C6=CC(=O)OC6)CC[C@]54O)C[C@H]3OC2O1 (stereo not given in full) | inactive [at 25.7 µM] |
| CC1CCCC(=O)CCC/C=C/c2cc(O)cc(O)c2C(=O)O1 (stereo not given) | inactive |
| Cc1[nH]c2ccc(Cl)cc2c1CCN(C)C | inactive |
| C[C@]12CC[C@H](O[C@@H]3O[C@H](CO)[C@@H](O)[C@H](O)[C@H]3O)CC1=CC[C@@H]1C2CC[C@]2(C)[C@@H](C3=CC(=O)OC3)CC[C@]12O (stereo not given in full) | inactive [at 25.7 µM] |

====

Target: Nucleoprotein (Lymphocytic choriomeningitis virus (strain Armstrong)) (UniProt P09992)
Sequence (P09992 whole entry, looked up): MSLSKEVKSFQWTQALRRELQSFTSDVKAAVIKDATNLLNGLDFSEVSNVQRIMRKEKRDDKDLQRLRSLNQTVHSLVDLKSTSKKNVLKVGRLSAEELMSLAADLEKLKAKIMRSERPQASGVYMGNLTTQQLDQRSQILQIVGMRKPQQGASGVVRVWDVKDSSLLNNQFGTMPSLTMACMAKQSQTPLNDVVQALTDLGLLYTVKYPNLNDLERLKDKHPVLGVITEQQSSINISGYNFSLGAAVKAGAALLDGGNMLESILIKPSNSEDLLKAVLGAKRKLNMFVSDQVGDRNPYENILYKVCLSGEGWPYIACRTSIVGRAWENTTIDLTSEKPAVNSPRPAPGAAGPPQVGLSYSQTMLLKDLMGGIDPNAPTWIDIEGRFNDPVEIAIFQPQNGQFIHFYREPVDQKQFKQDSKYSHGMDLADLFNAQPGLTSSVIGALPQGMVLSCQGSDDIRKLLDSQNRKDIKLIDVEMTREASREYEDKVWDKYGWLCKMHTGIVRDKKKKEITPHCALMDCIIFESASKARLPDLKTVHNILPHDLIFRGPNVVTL
Test description: qHTS for Inhibitors of the Functional Ribonucleoprotein Complex (vRNP) of Lymphocytic Choriomeningitis Arenaviruses (LCMV): LCMV Primary Screen - GLuc reporter signal (AID 1347086); note: nearly all actives have a fitted effect of over 70% in size
Experimental conditions: LCMV minigenome vRNP cell assay, Gaussia luciferase reporter; series mostly up to 57.5 µM
Results filed as inconclusive are left out. Calls of active or inactive are those of the source. Calls follow the shape of the full dose curve.
Classes used: y (active), n (inactive)

| Compound | Cat |
| --- | --- |
| CC1(C)CCC[C@@]2(C)C1CC[C@@](C)(O)[C@@H]2CC[C@@](C)(O)C1CO1 (some centres undefined) | n |
| CN1CCc2c(n(Cc3ccc(C(=O)NO)cc3)c3ccccc23)C1 | n |
| COc1c(-c2ccc(O)cc2)oc2cc(O)cc(O)c2c1=O | n |
| N#C/C(=C\c1ccc(-c2cc(Cl)ccc2Cl)o1)C(=O)Nc1cccc2ncccc12 | n |
| CC[C@H](C=C[C@@H](C)[C@H]1CC[C@H]2[C@@H]3CC=C4C[C@@H](O)CC[C@]4(C)[C@@H]3CC[C@]12C)C(C)C | n |
| OC(CN1CCN(c2cccc(Cl)c2)CC1)C(c1ccccc1)c1ccccc1 (centres undefined) | n |
| COc1ccc2ccc(=O)oc2c1CC=C(C)C | n |
| COc1ccc2c(c1)c(CC(=O)O)c(C)n2Cc1ccc(Cl)cc1 | n |
| COc1ccc(-c2cc(=O)c3c(O)cc(O[C@@H]4O[C@H](CO[C@@H]5O[C@@H](C)[C@H](O)[C@@H](O)[C@@H]5O)[C@@H](O)[C@H](O)[C@@H]4O)cc3o2)cc1O | y |

====

Target: Nucleoprotein (Lymphocytic choriomeningitis virus (strain Armstrong)) (UniProt P09992)
Test description: qHTS for Inhibitors of the Functional Ribonucleoprotein Complex (vRNP) of Lymphocytic Choriomeningitis Arenaviruses (LCMV): LCMV Primary Screen - GLuc reporter signal (AID 1347086); note: nearly all actives have a fitted effect of over 70% in size
Experimental conditions: LCMV minigenome vRNP cell assay, Gaussia luciferase reporter; series mostly up to 57.5 µM
Inconclusive results are not listed. Calls of active or inactive are those of the source. Calls follow the shape of the full dose curve.
Classes used: t = active, f = inactive

| Compound | Cat |
| --- | --- |
| CCCOC(=O)c1c(-c2ccccc2)nc(CC)c(C(=O)SCC)c1CCC | f |
| CC(=O)O[C@@]1(C)C[C@@H](O)[C@]2(O)C=CO[C@@H](O[C@@H]3O[C@H](CO)[C@@H](O)[C@H](O)[C@H]3O)[C@@H]21 | f |
| C/C=C(\C)C(=O)O[C@@H]([C@H](O)c1cc2ccc(=O)oc2cc1OC)C(C)(C)O | f |
| COc1c(O)cc(O)c2c(=O)cc(-c3ccccc3)oc12 | f |
| COc1cc([C@@H]2c3cc4c(cc3[C@H](O)C3COC(=O)[C@@H]32)OCO4)cc(OC)c1OC (stereo partly drawn) | f |
| C=C[C@@]1(C)CCC(/C(C)=C/C=C/C(C)(C)O)C[C@@H]1C(=C)C (stereo partly drawn) | f |
| O=c1ccn([C@H]2C[C@H](O)[C@@H](CO)O2)c(=O)[nH]1 | f |
| O=C1O[C@@H](c2ccc(O)cc2)Cc2cccc(O)c21 | f |
| CCCCC(C=O)NC(=O)C(CC(C)C)NC(=O)OCc1ccccc1 (stereo not drawn) | f |
| C=C(C)[C@@H]1CC[C@@H](C)C[C@@H]1O | f |
| COc1ccccc1N1CCN(CCCCNC(=O)c2ccc3ccccc3c2)CC1 | f |
| Cn1cnc(=N)c2[nH]cnc21 | f |
| COc1cc(F)c(F)c(Nc2ccc(I)cc2F)c1NS(=O)(=O)C1(C[C@H](O)CO)CC1 | f |
| NCCCCC(=O)O | f |
| Cc1cc2c(cc1Cl)N(C(=O)Nc1ccnc3ccccc13)CC2 | f |
| COc1ccc(-c2cc(=O)c3c(OC)c(OC)c(OC)c(OC)c3o2)cc1 | f |
| CSc1cccc(Nc2ncc3cc(-c4c(Cl)cccc4Cl)c(=O)n(C)c3n2)c1 | f |
| COC(=O)Cc1ccccc1 | f |
| Cc1ccccc1-n1c(Cn2nc(-c3cccc(O)c3)c3c(N)ncnc32)nc2cccc(C)c2c1=O | t |
| O=C(N[C@@H](Cc1ccccc1)C(=O)CCl)OCc1ccccc1 | f |
| CN1CCCC1 | f |
| CCCCOC(=O)C(=O)OCCCC | f |
| CN(C)c1nc(Cc2ccc(NC(=O)c3ccc(C(F)(F)F)cc3)cc2)nc(N(C)C)c1CC(=O)O | f |
